test-protocol: LY2510924 pharmacokinetics in plasma, noncompartmental analysis
test-context: human, plasma, sc, Cmax, Day 1; 30 mg/day SC, n = 3; geometric mean (CV%); with durvalumab
Where a SMILES comes first, the peptide text is derived from it. Bridges are numbered along the chain shown (N, C = ends). [ ]: non-standard residue; d: D form. 2Nal = N[C@@H](Cc1ccc2ccccc2c1)C(=O)O; Lys(iPr) = CC(C)NCCCC[C@H](N)C(=O)O
test-readout: Cmax (ng/mL)
Only the number, expressed in ng/mL, is required.

Report Cmax for CC(C)NCCCC[C@H](NC(=O)[C@H]1CCC(=O)N[C@@H](Cc2ccccc2)C(=O)N[C@@H](Cc2ccc(O)cc2)C(=O)N[C@@H](CCCCNC(C)C)C(=O)N[C@H](CCCNC(=N)N)C(=O)N[C@@H](Cc2ccc3ccccc3c2)C(=O)NCC(=O)N1)C(N)=O [LY2510924] (FY[Lys(iPr)][dR][2Nal]G[dE][Lys(iPr)]-NH2; lactam N-7) please.
682
